# Assay remarks: Phase I clinical trial with terminal cancer patients
# Type: in vivo, human
# Condition: human, in vivo, sc, preliminary, daily subcutaneous injection, 1 mg/Kg
Readout: half-life

> print(dat)
                                   compound  recorded.result
1  CN(C)CCNC(=O)COc1c2cccc1Cc1cccc(c1OCC(=O)NCCN(C)C)Cc1cccc(c1OCC(=O)NCCN(C)C)Cc1cccc(c1OCC(=O)NCCN(C)C)C2 [OTX-008]            ~48 h
